Tested on: E. coli TESEC Mtb Asd
METHOD_SUMMARY: growth (OD600 after 10 h); higher = more growth (less inhibition)
STATED_CONDITIONS: arabinose induction (level): High; compound 0.1 mM; raw OD600 reference: median of DMSO wells 0.331, cell-free background 0.041
Categorize each record by its growth using low: < 0.06; medium: ≥ 0.06 and < 0.3; high: ≥ 0.3

For orientation, consider the following solved cases.
[
  {
    "COMPOUND": "Nc1nc(=O)c2nc(CNc3ccc(C(=O)N[C@@H](CCC(=O)O)C(=O)O)cc3)cnc2[nH]1 [Folic acid]",
    "CATEGORY": "medium"
  },
  {
    "COMPOUND": "Cc1ccc(C(=O)c2cc(O)c(O)c([N+](=O)[O-])c2)cc1 [Tolcapone]",
    "CATEGORY": "low"
  },
  {
    "COMPOUND": "Nc1nc2c(ncn2COCCO)c(=O)[nH]1 [Acyclovir]",
    "CATEGORY": "high"
  },
  {
    "COMPOUND": "CCCCCCCCCCCCCCCC[N+](C)(C)CCN(Cc1ccc(OC)cc1)c1ncccn1 [Thonzonium bromide]",
    "CATEGORY": "low"
  },
  {
    "COMPOUND": "NC(=O)c1ncn([C@@H]2O[C@H](CO)[C@@H](O)[C@H]2O)n1 [Ribavirin]",
    "CATEGORY": "high"
  },
  {
    "COMPOUND": "Nc1nc(N)c2nc(-c3ccccc3)c(N)nc2n1 [Triamterene]",
    "CATEGORY": "medium"
  },
  {
    "COMPOUND": "CC(C)(C)NCC(O)COc1cccc2c1CC(O)C(O)C2 (centres undefined) [Nadolol]",
    "CATEGORY": "high"
  }
]

## Input Dear colleague, I would appreciate it if you could identify the bin for Cc1ccc(-c2cc(C(F)(F)F)nn2-c2ccc(S(N)(=O)=O)cc2)cc1 [Celecoxib] and reply at your convenience.
## Output low

---

System: E. coli TESEC Mtb DapB
METHOD_SUMMARY: growth (OD600 after 10 h); higher = more growth (less inhibition)
STATED_CONDITIONS: arabinose induction (level): Low; compound 0.1 mM; raw OD600 reference: median of DMSO wells 0.227, cell-free background 0.041
Structures can show the parent of a compound that is named as a salt.
In this section, each of the molecules is paired with its reported growth.
Output spec: single numeric token, no unit.

Please review the following examples before continuing.
[
  {
    "MOLECULE": "CN1CCN(c2c(F)cc3c(=O)c(C(=O)O)cn4c3c2SCC4)CC1",
    "growth": 0.0509
  },
  {
    "MOLECULE": "CNCCC=C1c2ccccc2CCc2ccccc21 [Nortriptyline hydrochloride]",
    "growth": 0.195
  },
  {
    "MOLECULE": "Cc1ccnc2c1NC(=O)c1cccnc1N2C1CC1",
    "growth": 0.243
  },
  {
    "MOLECULE": "CN1CC2c3ccccc3Oc3ccc(Cl)cc3C2C1 (configuration not stated) [Asenapine maleate]",
    "growth": 0.254
  },
  {
    "MOLECULE": "CC(=O)OCC1=C(C(=O)O)N2C(=O)[C@@H](NC(=O)Cc3cccs3)[C@H]2SC1 [Cephalothin sodium salt]",
    "growth": 0.258
  }
]

## Input Provide the documented growth with E. coli TESEC Mtb DapB as the system for CCOC(=O)[C@@](C)(N)Cc1ccc(O)c(O)c1 [Methyldopate hydrochloride]
## Output 0.152

## Input Notebook: pull reported growth for E. coli TESEC Mtb DapB, entry COC(=O)C1=C(C)NC(C)=C(C(=O)OCCN(C)Cc2ccccc2)C1c1cccc([N+](=O)[O-])c1 (configuration not stated) [Nicardipine hydrochloride]
## Output 0.0547

## Input Recall the recorded growth for CCCSc1ccc2[nH]c(NC(=O)OC)nc2c1 with E. coli TESEC Mtb DapB and state it.
## Output 0.25
